Test system: Bacillus subtilis
procedure-text: Antimicrobial activity against Bacillus subtilis KCTC 1021 after 24 hrs by broth dilution method
Type: functional
condition-set: KCTC 1021, 24 h
readout-name: MIC (µg/mL)

C=C/C=C(\C)CC[C@@H](O)C[C@H](O)CC(=O)OC
32
C=C/C=C(\C)CC[C@@H]1C[C@H](O)CC(=O)O1
32
C[C@@H](O)CCC/C=C/C=C/[C@@H](O)CC(=O)O
32
C[C@@H](O)CCC/C=C/C=C/C(=O)O
32
